Test system: HCV 1a replicon
Assay: Cell-based HCV replicon assay (TaqMan), genotype 1a replicon
Settings: Hepatitis C virus, 72 h, HCV genotype 1a replicon cells, replicon RNA by real time PCR, day 3; EC90 = concentration for ΔCT=3.2 over baseline
This section presents compounds with their documented log10 of EC90 values.
A value of 2 here means EC90 of 100 in pM, since values are log10.

See these solved cases before continuing.
COC(=O)N[C@H](C(=O)N1C[Si](C)(C)C[C@H]1c1nc2ccc3cc(-c4ccc(-c5[nH]c([C@@H]6C[C@H]7C[C@H]7N6C(=O)[C@@H](NC(=O)OC)C(C)C)nc5Cl)cc4)ccc3c2[nH]1)C(C)C    1.68
COC(=O)N[C@@H](Cc1cccc(O)c1)C(=O)N1C[Si](C)(C)C[C@H]1c1nc2ccc3cc(-c4ccc(-c5cnc([C@@H]6CCCN6C(=O)[C@@H](NC(=O)OC)C(C)C)[nH]5)cc4)ccc3c2[nH]1    2.52
CCCC(NC(=O)OC)C(=O)N1C[Si](C)(C)C[C@H]1c1ncc(-c2ccc(-c3ccc4c(ccc5nc([C@@H]6CCCN6C(=O)[C@H](CCC)NC(=O)OC)[nH]c54)c3)cc2)[nH]1 (stereo partly drawn)    2.81

Reading of log10 of EC90 for COC(=O)N[C@@H](Cc1cccc(O)c1)C(=O)N1C[Si](C)(C)C[C@H]1c1ncc(-c2ccc(-c3ccc4c(ccc5nc([C@@H]6CCCN6C(=O)[C@H](Cc6cccc(O)c6)NC(=O)OC)[nH]c54)c3)cc2)[nH]1 with HCV 1a replicon: 3.40

Assay HCV 1a replicon, sample COC(=O)N[C@H](C(=O)N1CCC[C@H]1c1ncc(-c2ccc3cc(-c4ccc5c(ccc6nc([C@@H]7C[Si](C)(C)CN7C(=O)[C@@H](NC(=O)OC)C7CC7)[nH]c65)c4)ccc3c2)[nH]1)C1CC1 , log10 of EC90 read: 1.78

// returns log10 of EC90 for COC(=O)N[C@@H](Cc1cn(C)cn1)C(=O)N1C[Si](C)(C)C[C@H]1c1ncc(-c2ccc(-c3ccc4c(ccc5nc([C@@H]6CCCN6C(=O)[C@H](Cc6cn(C)cn6)NC(=O)OC)[nH]c54)c3)cc2)[nH]1 with HCV 1a replicon; value = 3.41

log10 of EC90 of COC(=O)N[C@H](C(=O)N1C[Si](C)(C)C[C@H]1c1nc2ccc3cc(-c4ccc(-c5cnc([C@@H]6CCCN6C(=O)[C@@H](NC(=O)OC)C(C)(C)OC)[nH]5)cc4)ccc3c2[nH]1)C(C)C , assay on HCV 1a replicon, is 2.89

HCV 1a replicon data for COC(=O)N[C@H](C(=O)N1CCC[C@H]1c1ncc(-c2ccc(-c3ccc4c(ccc5nc([C@@H]6C[Si](C)(C)CN6C(=O)[C@@H]6COCCN6C(=O)OC)[nH]c54)c3)cc2)[nH]1)C(C)C ; its log10 of EC90: 3.20

The reported HCV 1a replicon log10 of EC90 of COC(=O)N[C@H](C(=O)N1C[Si](C)(C)C[C@H]1c1nc2ccc3cc(-c4ccc(-c5cnc([C@@H]6CCCN6C(=O)[C@@H](NC(=O)OC)C6CCCC6)[nH]5)cc4)ccc3c2[nH]1)C(C)C is 2.72

Reported HCV 1a replicon log10 of EC90 for item COC(=O)N[C@H](C(=O)N1C[C@H](O)C[C@H]1c1ncc(-c2ccc(-c3ccc4c(ccc5nc([C@@H]6C[Si](C)(C)CN6C(=O)[C@@H](NC(=O)OC)C(C)C)[nH]c54)c3)cc2)[nH]1)C(C)C was 2.41
